- Test system: MDA-MB-435
- method.notes: NCI tumour cell line growth inhibition, 48 h
The source made the active and inactive calls. Cut-off read from the data, not from the text of the source: active = GI50 up to about 1.1 µM and inactive = higher.
recorded.endpoint: GI50

Query :: Reported GI50, compound CCCCCCCC1(N=[N+]=[N-])C(=O)c2ccccc2N(C)C1=O (stereo unspecified) : ____
Result :: 89.9 µM (inactive)

Query :: Reported GI50, compound O=C1c2cc3c(cc2CC12Cc1ccc4c(c1C2=O)CCC4)CCCC3 (stereo unspecified) : ____
Result :: 76.4 µM (inactive)

Query :: Reported GI50, compound O=C1C(NCCc2cc(Br)c(O)c(Br)c2)=CC(=O)c2ncccc21 : ____
Result :: 1.69 µM (inactive)

Query :: Reported GI50, compound COc1ccc(/C=C2\S/C(=N/Nc3nc(-c4ccccc4)cs3)NC2=O)cc1OC : ____
Result :: 25.7 µM (inactive)

Query :: Reported GI50, compound COC(=O)c1cc(O)nc(O)n1 : ____
Result :: > 100 µM (inactive)

Query :: Reported GI50, compound O=C1OCC=C1COC1OC(CO)C(O)C(O)C1O (stereo unspecified) : ____
Result :: > 100 µM (inactive)

Query :: Reported GI50, compound CCOC(=O)c1csc(NC(=O)CN2CCCC2)n1 : ____
Result :: > 100 µM (inactive)

Query :: Reported GI50, compound COc1cc2c(cc1C)NC(=O)/C2=C/c1c(Cl)n(-c2ccccc2)c2ccccc12 : ____
Result :: 15.1 µM (inactive)

Query :: Reported GI50, compound Nc1ccc(Oc2ccc(C34CC5CC(C3)CC(c3ccc(Oc6ccc(N)cc6)cc3)(C5)C4)cc2)cc1 : ____
Result :: 7.53 µM (inactive)

Query :: Reported GI50, compound COCCN(C(=O)c1ccccc1)C1CCC(=O)c2[nH]c3ccccc3c21 (stereo unspecified) : ____
Result :: 6.87 µM (inactive)

Query :: Reported GI50, compound O=CC1OC(=O)c2cc(O)c(O)c(O)c2-c2c(cc(O)c(O)c2O)C(=O)OC1C1OC(=O)c2cc(O)c(O)c(O)c2-c2c(O)c(O)c3oc(=O)c4c(c(O)c(O)c5oc(=O)c2c3c54)-c2c(cc(O)c(O)c2O)C(=O)OCC1O (stereo unspecified) : ____
Result :: 22.3 µM (inactive)

Query :: Reported GI50, compound N#C/C(C(=S)NCc1ccccc1)=C(/N)N1CCCC1 : ____
Result :: > 100 µM (inactive)

Query :: Reported GI50, compound O=c1c(C(c2ccc(/C=C/c3ccccc3)cc2)c2c(O)oc3ccccc3c2=O)c(O)oc2ccccc12 : ____
Result :: 29 µM (inactive)

Query :: Reported GI50, compound NC(C(=O)OC(=O)c1ccccc1)C(=O)OC(=O)c1ccccc1 : ____
Result :: > 100 µM (inactive)

Query :: Reported GI50, compound c1ccc(COC[C@H]2C3OCC([C@H](OCc4ccccc4)[C@H]3OCc3ccccc3)N2Cc2ccccc2)cc1 (stereo partly specified) : ____
Result :: > 55.2 µM (inactive)

Query :: Reported GI50, compound NC(=S)NNC(=S)NC(=O)c1ccco1 : ____
Result :: > 10 µM (inactive)

Query :: Reported GI50, compound Oc1ccc(-c2nc(-c3cccnc3)c(-c3ccc(F)cc3)[nH]2)cc1 : ____
Result :: 16.2 µM (inactive)

Query :: Reported GI50, compound CC1=C(C)C(=O)C2=C(OCCO2)C1=O : ____
Result :: 2.82 µM (inactive)

Query :: Reported GI50, compound COc1c(Cl)cc(NC(=S)C#N)cc1Cl : ____
Result :: 25 µM (inactive)

Query :: Reported GI50, compound CCOC(=O)CCC(NC(=O)c1ccc(OCc2nc3ccccc3n3cccc23)cc1)C(=O)OCC (stereo unspecified) : ____
Result :: 80.4 µM (inactive)

Query :: Reported GI50, compound COc1cccc2c1OC(c1ccc(C#N)cc1)C([N+](=O)[O-])=C2 (stereo unspecified) : ____
Result :: 1.39 µM (inactive)

====

- System: RXF 393
- method.notes: NCI tumour cell line growth inhibition, 48 h
Activity calls are given as the source filed them. Cut-off read from the data, not from the text of the source: active = GI50 up to about 1.1 µM and inactive = higher.
In this exercise, the only acceptable responses are active, inactive

Query :: How was CCOC(O)C(F)(F)F (centres undefined) classified in this test?
Result :: inactive

Query :: How was CC(=O)ONC(C(=O)C(C)(C)C)C(=O)C(C)(C)C classified in this test?
Result :: inactive

Query :: How was Nc1ccc(Oc2ccc(C34CC5CC(C3)CC(c3ccc(Oc6ccc(N)cc6)cc3)(C5)C4)cc2)cc1 classified in this test?
Result :: inactive

Query :: How was NNC(=O)CCC(NS(=O)(=O)c1ccc(Cl)cc1)C(=O)NN (centres undefined) classified in this test?
Result :: inactive

Query :: How was C[C@]12CCc3nonc3C1CC[C@@H]1C2CC[C@@]2(C)C1CC[C@@H]2O (some centres undefined) classified in this test?
Result :: inactive

Query :: How was CCOC(=O)Cn1c(C)nc2nn(Cc3ccccc3)cc2c1=O classified in this test?
Result :: inactive

Query :: How was CC(C)CC1c2[nH]c3ccccc3c2C[C@H]2C(=O)NC(COC(C)(C)C)C(=O)N12 (some centres undefined) classified in this test?
Result :: inactive

Query :: How was Cc1nc(N)sc1C(=O)/C=C/c1ccc(/C=C/C(=O)c2sc(NC(=O)CCCCCCCCC(=O)Nc3nc(C)c(C(=O)/C=C/c4ccc(/C=C/C(=O)c5sc(N)nc5C)cc4)s3)nc2C)cc1 classified in this test?
Result :: inactive

Query :: How was COc1ccccc1N1C(=O)/C(=C\c2cccc(Oc3ccccc3)c2)SC1c1ccccc1 (centres undefined) classified in this test?
Result :: inactive

Query :: How was CC(C)(C)CC(C)(C)c1ccc(OCCOCC[N+](C)(C)Cc2ccccc2)cc1 [BENZETHONIUM CHLORIDE] classified in this test?
Result :: inactive

Query :: How was CCn1c(CCCc2nc3c(=O)n(C)c(=O)n(C)c3[nH]2)nc2c1c(=O)n(C)c(=O)n2C classified in this test?
Result :: inactive

Query :: How was O=C(Cn1c(C(=O)/C=C/c2ccc(Cl)c(Cl)c2)nc2ccccc21)c1ccccc1 classified in this test?
Result :: inactive

Query :: How was COC1CC(C)(NC(=O)C(F)(F)F)C2OC(c3ccccc3)OCC2O1 (centres undefined) classified in this test?
Result :: inactive

Query :: How was COC(=O)c1cc(O)nc(O)n1 classified in this test?
Result :: inactive

Query :: How was O=C1CC(CC(=O)c2ccc(Br)cc2)C(O)=C1C(=O)c1ccc(Br)cc1 (centres undefined) classified in this test?
Result :: inactive

Query :: How was COCCN(C(=O)c1ccccc1)C1CCC(=O)c2[nH]c3ccccc3c21 (centres undefined) classified in this test?
Result :: inactive

Query :: How was CC(C)(C)OC(=O)NCCNCCNc1ccccc1 classified in this test?
Result :: inactive

Query :: How was Nc1ccc2c(c1)C1=NNC(=O)CC1C2 (centres undefined) classified in this test?
Result :: inactive

Query :: How was O=C1OCC=C1COC1OC(CO)C(O)C(O)C1O (centres undefined) classified in this test?
Result :: inactive

Query :: How was Cc1[nH]c2ccccc2c1C1=NO/C(=N\O)C(c2c(C)[nH]c3ccccc23)C1 (centres undefined) classified in this test?
Result :: inactive

Query :: How was CP(C)C.[Ag][I] classified in this test?
Result :: inactive

Query :: How was O=C(O)CC12CC3CC(CC(O)(C3)C1)C2 classified in this test?
Result :: inactive

Query :: How was O=C(O)c1nccnc1C(=O)O classified in this test?
Result :: inactive

Query :: How was O=C(O)CCC(NC(=O)c1ccc(Oc2nc3ccccc3nc2-c2ccccc2)cc1)C(=O)O (centres undefined) classified in this test?
Result :: inactive

Query :: How was C=C1C(=O)OC2/C=C(\C)C(O)/C=C\C(C)(O)CC(OC(=O)/C(C)=C/C)C12 (centres undefined) classified in this test?
Result :: inactive

Query :: How was Cc1ccc2[nH]c3c(c2c1)CCC/C3=N/N=C(N)N classified in this test?
Result :: inactive

Query :: How was CC(C)(C)OC(=O)C(C1NC(C(=O)O)C(C)(C)S1)N1C(=O)c2ccccc2C1=O (centres undefined) classified in this test?
Result :: inactive

Query :: How was CCC(CN(C)C)C(=O)c1ccco1 (centres undefined) classified in this test?
Result :: inactive

Query :: How was O=C(O)CCC1C(=O)C2CCN1CC2 (centres undefined) classified in this test?
Result :: inactive

Query :: How was CCOC(=O)C1=C(NC(C)(C)C)OC/C1=N\NC(=O)Cc1ccccc1 classified in this test?
Result :: inactive

Query :: How was C=C1C2C[C@@H]3O[C@H]4C[C@H]5O[C@@]6(C[C@@H]7O[C@]8(C[C@H](C)[C@@H]9O[C@@H]%10CC(CO)O[C@@H]%10C[C@@H]9O8)C[C@H](C)[C@@H]7O6)C[C@H]5O[C@H]4[C@H](C)[C@H]3OC(=O)C[C@H]3CC[C@@H]4OC5[C@H]6O[C@]7(CC[C@H]8CC(=C)[C@H](CC[C@@H](C[C@H]1C)O2)O8)CC6O[C@@H]5[C@@H](O7)[C@H]4O3 (some centres undefined) classified in this test?
Result :: active

Query :: How was COc1cccc2c1OC(c1ccc(C#N)cc1)C([N+](=O)[O-])=C2 (centres undefined) classified in this test?
Result :: inactive

Query :: How was CC1=CC(O)CC(C)(C)C1/C=C/C(C)=C/C=C/C(C)=C/C=C/C=C(C)/C=C/C=C(C)/C=C/C1=C(C)CC(O)CC1(C)C (centres undefined) classified in this test?
Result :: inactive

Query :: How was Clc1ccc(-c2cn3c(nc4ccccc43)c(-c3ccccc3)n2)cc1 classified in this test?
Result :: inactive

Query :: How was NC(C(=O)OC(=O)c1ccccc1)C(=O)OC(=O)c1ccccc1 classified in this test?
Result :: inactive

Query :: How was O=C(Nc1ccc(C(F)(F)F)cc1[N+](=O)[O-])C(=O)C1NC(=S)NC1=O (centres undefined) classified in this test?
Result :: inactive

Query :: How was COC(=O)/C(=N\NC(=S)NN)C(C(=O)C(=O)Nc1ccccc1C(N)=O)c1nc2ccccc2nc1O (centres undefined) classified in this test?
Result :: inactive

Query :: How was COc1cc([C@@H]2OCC3C(c4ccc5c(c4)OCO5)OCC32)cc(OC)c1OC (some centres undefined) classified in this test?
Result :: inactive

Query :: How was CN1CCn2c(Br)ccc2C1=O classified in this test?
Result :: inactive
